Structures can show the parent of a compound that is named as a salt.
Readout: melting point

Q. // query melting point value for entry Cc1cc(CSC(=N)N)cc(CSC(=N)N)c1 (as salt: hydrobromid) [Example 3.3, dihydrobromide]
A. 240 to 241 °C

Q. Any idea what melting point was measured for Cc1cc(C)c(CSC(=N)N)cc1CSC(=N)N (as salt: hydrochloride) [Example 3.16, dihydrochloride] ?
A. 248 to 251 °C

Q. What does the record list as melting point for N=C(N)SCc1cccc(CSC(=N)N)n1 (as salt: hydrobromid) [Example 3.12, dihydrobromide] ?
A. 208 to 210 °C

***
Q. For Cc1c(C)c(CSC(=N)N)c(C)c(CSC(=N)N)c1C (as salt: hydrochloride) [Example 3.5, dihydrochloride] , what is its reported melting point?
A. > 260 °C

Q. State the recorded melting point for this entry: Cc1c(O)c(C)c(CSC(=N)N)c(C)c1CSC(=N)N (as salt: hydrochloride) [Example 3.19, dihydrochloride]
A. 175 to 178 °C

Q. What melting point value was documented for this compound, CC(C)(SC(=N)N)c1cccc(C(C)(C)SC(=N)N)c1 (as salt: hydrobromid) [Example 6, dihydrobromide] ?
A. 142 to 144 °C

Q. Fill in the blank: the reported melting point of N#Cc1c(CSC(=N)N)cccc1CSC(=N)N (as salt: hydrobromid) [Example 3.14, dihydrobromide] is ____.
A. 270 to 272 °C (dec.)

* * *

Structures can show the parent of a compound that is named as a salt.
Readout: melting point

Q. What does the data say about its melting point? Entry: Cc1c(CSC(=N)N)cccc1CSC(=N)N (as salt: hydrobromid) [Example 3.21, dihydrobromide]
A. 258 to 261 °C

Q. Consider the molecule shown here: CC(C)c1cc(C(C)C)c(CSC(=N)N)cc1CSC(=N)N (as salt: hydrobromid) [Example 3.1, dihydrobromide] What is its recorded melting point?
A. 208 to 210 °C

Q. Could you share which melting point value was measured for CCOC(=O)c1cc(C(=O)OCC)c(CSC(=N)N)cc1CSC(=N)N (as salt: hydrobromid) [Example 3.4, dihydrobromide] ?
A. 237 to 238 °C

Q. Using the record for `CN/C(=N\C#N)NCc1c(C)cc(C)c(CN/C(=N/C#N)NC)c1C` , report its melting point.
A. 270 to 272 °C

Q. Need melting point of Cc1nc(C)c(CSC(=N)N)c(C)c1CSC(=N)N (as salt: hydrochloride) [Example 8, dihydrochloride] , thanks.
A. 185 to 187 °C

Q. Which measured melting point value corresponds to N=C(N)SCc1cccc2cccc(CSC(=N)N)c12 (as salt: hydrobromid) [Example 3.13, dihydrobromide] ?
A. 230 to 233 °C

Q. Returns the measured melting point for the input molecule. Input: N=C(N)SCc1c(Cl)c(Cl)c(Cl)c(CSC(=N)N)c1Cl (as salt: hydrochloride) [Example 3.6, dihydrochloride]
A. 208 to 210 °C

Q. melting point lookup needed for Cc1c(CSC(=N)N)cc(CSC(=N)N)c(C)c1Br (as salt: hydrochloride) [Example 3.17, dihydrochloride] , thanks.
A. 270 to 273 °C

Now for a further molecule.
Q. Given the entry N=C(N)SC(=O)c1sc(C(=O)SC(=N)N)c(Cl)c1Cl (as salt: hydrochloride) [Example 9, dihydrochloride] , report its measured melting point.
A. 215 to 218 °C

* * *

molecular target: DMT1 (Homo sapiens, UniProt P49281); assay: DMT1 activity assay (IC50 activity level, Table 1); settings: inhibition of DMT1
Sequence (P49281 whole entry): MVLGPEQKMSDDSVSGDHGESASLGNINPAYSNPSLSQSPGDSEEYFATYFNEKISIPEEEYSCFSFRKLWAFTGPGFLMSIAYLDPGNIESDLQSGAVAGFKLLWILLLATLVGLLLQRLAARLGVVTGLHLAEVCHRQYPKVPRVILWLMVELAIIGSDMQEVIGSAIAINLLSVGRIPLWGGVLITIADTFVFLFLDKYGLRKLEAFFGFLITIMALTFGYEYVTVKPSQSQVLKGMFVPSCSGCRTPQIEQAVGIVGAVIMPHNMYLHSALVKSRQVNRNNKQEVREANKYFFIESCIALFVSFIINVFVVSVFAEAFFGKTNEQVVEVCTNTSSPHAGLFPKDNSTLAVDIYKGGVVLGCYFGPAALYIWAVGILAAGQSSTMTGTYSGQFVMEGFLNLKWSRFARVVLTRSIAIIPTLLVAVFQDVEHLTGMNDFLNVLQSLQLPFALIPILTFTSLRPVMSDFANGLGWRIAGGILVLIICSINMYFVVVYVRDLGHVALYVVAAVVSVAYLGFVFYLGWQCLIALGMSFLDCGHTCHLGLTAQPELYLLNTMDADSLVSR
Where a name gives a salt, the structure may show the parent alone.
Catalogue of IC50 readings, one per entry.

Consider the reported IC50 for these compounds:
Q. Could you tell me which IC50 is on file for Cc1cc(C)c(CSC(=N)N)cc1CSC(=N)N [Example 3.16, dihydrochloride] ?
A. 100 to 1000 nM

Q. So what does the record say about IC50 for CC(C)c1cc(C(C)C)c(CSC(=N)N)cc1CSC(=N)N [Example 3.1, dihydrobromide] ?
A. ≥ 1000 nM

Q. May I ask what IC50 has been recorded for N=C(N)SCc1cccc(CSC(=N)N)n1 [Example 3.12, dihydrobromide] ?
A. ≥ 1000 nM

Q. What value of IC50 has been recorded for this entry: N=C(N)SCc1ccc2ccccc2c1CSC(=N)N [Example 3.20, dihydrobromide]
A. ≥ 1000 nM

Q. Record request: IC50 value, item Cc1c(CSC(=N)N)c(C)c(CSC(=N)N)c(C)c1CSC(=N)N [Example 3.11, trihydrobromide]
A. ≥ 1000 nM

Q. Please look up its IC50: N=C(N)SCc1cccc2cccc(CSC(=N)N)c12 [Example 3.13, dihydrobromide]
A. ≥ 1000 nM

Q. IC50 for Cc1c(O)c(C)c(CSC(=N)N)c(C)c1CSC(=N)N [Example 3.19, dihydrochloride] ?
A. 100 to 1000 nM

Field: next compound
Q. May I ask what IC50 has been recorded for CCOC(=O)c1cc(C(=O)OCC)c(CSC(=N)N)cc1CSC(=N)N [Example 3.4, dihydrobromide] ?
A. ≥ 1000 nM

* * *

Reported melting point values for the following compounds.
Counter-ions that a name gives are not always drawn.

Solved entries:
Q. Any idea what melting point was measured for `CNC(=N)SCc1c(C)cc(C)c(CSC(=N)NC)c1C.Cl` ?
A. 223 to 225 °C

Q. Would you mind telling me what melting point value was observed for Cc1cc(C)c(C(C)SC(=N)N)c(C)c1C(C)SC(=N)N (stereo not shown) (as salt: hydrobromid) [Example 6.1, dihydrobromide] ?
A. 204 to 206 °C

Q. Return reported melting point; argument: Cc1cc(CSC(=N)N)c(O)c(CSC(=N)N)c1 (as salt: hydrobromid) [Example 6.2, dihydrobromide]
A. 223 to 225 °C

New cases:
Q. Any idea what its melting point is? The compound is N=C(N)SCc1n[nH]c(CSC(=N)N)n1 (as salt: hydrochloride) [Example 3.8, dihydrochloride]
A. 196 to 200 °C

* * *

molecular target: DMT1 (Homo sapiens); assay: DMT1 activity assay (IC50 activity level, Table 1); conditions: inhibition of DMT1
pIC50: −log10 of the molar value. Structures can show the parent of a compound that is named as a salt.
Known pIC50 of a selection of molecules

Worked cases, answers included:
Q. // query pIC50 value for entry Cc1cc(C)c(C(C)SC(=N)N)c(C)c1C(C)SC(=N)N (stereo not drawn) [Example 6.1, dihydrobromide]
A. 6.00 to 7.00

Q. Param item = COc1c(CSC(=N)N)cc(C)cc1CSC(=N)N [Example 3.18, dihydrobromide] ; retrieve measured pIC50.
A. ≤ 6.00

Switching to the query record.
Q. Can you share its pIC50? I mean this molecule: N=C(N)SCc1cccc(CSC(=N)N)c1 [Example 3.2, dihydrobromide]
A. ≤ 6.00

* * *

Recorded melting point for the following compounds
Counter-ions that a name gives are not always drawn.

Worked examples follow.
Q. Requested field: melting point. Item: N=C(N)SCc1nnc(CSC(=N)N)n1N (as salt: hydrochloride) [Example 3.7, dihydrochloride]
A. 213 °C (dec.)

Q. I'd like to know its melting point. The compound in question is Cc1c(C)c(C)c(CSC(=N)N)c(CSC(=N)N)c1C (as salt: hydrobromid) [Example 3.22, dihydrobromide]
A. > 265 °C

Q. Consider the compound N=C(N)Cc1cccc(CC(=N)N)c1 [Example 4, 2,2′-(1,3-phenylene)diacetimidamide] and give its measured melting point.
A. 200 to 205 °C

---
Q. Suppose we examine the compound Cc1cc(C)c(CNC(=N)N)c(C)c1CNC(=N)N (as salt: toluenesulfonate) ; what melting point value has been reported?
A. > 250 °C

Q. What does the data say about its melting point? Entry: COc1c(CSC(=N)N)cc(C)cc1CSC(=N)N (as salt: hydrobromid) [Example 3.18, dihydrobromide]
A. 236 to 239 °C

Hello, the source for this data is patent US20100240713A1, in case you need it.
